Target: UniProt P10275
Sequence (P10275 whole entry): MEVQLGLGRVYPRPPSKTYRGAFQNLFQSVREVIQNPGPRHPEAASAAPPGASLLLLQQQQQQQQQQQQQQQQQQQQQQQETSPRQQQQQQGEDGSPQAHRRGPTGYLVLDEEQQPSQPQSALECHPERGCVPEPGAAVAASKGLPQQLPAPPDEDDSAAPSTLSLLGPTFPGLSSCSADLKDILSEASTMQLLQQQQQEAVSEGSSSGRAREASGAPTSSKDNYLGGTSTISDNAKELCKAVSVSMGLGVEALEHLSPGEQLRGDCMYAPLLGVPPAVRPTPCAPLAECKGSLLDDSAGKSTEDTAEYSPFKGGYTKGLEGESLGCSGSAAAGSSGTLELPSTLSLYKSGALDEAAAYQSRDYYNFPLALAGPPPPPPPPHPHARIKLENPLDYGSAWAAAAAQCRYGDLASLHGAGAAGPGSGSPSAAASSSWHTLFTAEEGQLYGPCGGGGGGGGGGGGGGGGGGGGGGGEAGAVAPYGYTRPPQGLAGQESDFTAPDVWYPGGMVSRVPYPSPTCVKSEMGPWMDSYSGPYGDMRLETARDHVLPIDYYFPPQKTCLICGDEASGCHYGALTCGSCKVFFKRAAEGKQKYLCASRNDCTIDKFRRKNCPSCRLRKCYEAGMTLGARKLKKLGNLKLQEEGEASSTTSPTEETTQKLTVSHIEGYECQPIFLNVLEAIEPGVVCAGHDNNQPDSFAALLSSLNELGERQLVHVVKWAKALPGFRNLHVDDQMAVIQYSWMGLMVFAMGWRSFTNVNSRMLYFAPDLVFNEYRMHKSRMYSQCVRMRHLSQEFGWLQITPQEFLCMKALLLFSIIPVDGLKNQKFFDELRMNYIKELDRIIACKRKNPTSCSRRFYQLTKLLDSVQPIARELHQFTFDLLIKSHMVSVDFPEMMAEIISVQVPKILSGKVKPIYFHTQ
readout type: pKi
One number for each entry, as −log10 of the molar value.

Worked cases, pKi given:
smiles record: O=C1[C@@H]2C3C=CC(C3)[C@@H]2C(=O)N1c1cc(Cl)cc(Cl)c1
readout type: pKi
observed result: 6.80
//
smiles record: O=C1[C@@H]2C3C=CC(C3)[C@@H]2C(=O)N1c1ccc(O)c2ncccc12
readout type: pKi
observed result: 6.79

Q: Please report the recorded pKi for Cc1cc(N2C(=O)[C@@H]3C4C=CC(C4)[C@@H]3C2=O)ccc1Br .
Ans: 6.90

###

Here we list compounds with their recorded pIC50 when tested on UniProtKB P10275.
Answers are plain numbers, as −log10 of the molar value.

Record pIC50 per entry; entries follow.
1. O=C1[C@@H]2C3C=CC(C3)[C@@H]2C(=O)N1c1cccc(C(F)(F)F)c1
2. O=C1[C@@H]2C3C=CC(C3)[C@@H]2C(=O)N1c1ccc2cccnc2c1

Ans:
1. 6.13
2. 5.98
